System: SW-620 colon
Assay: NCI tumour cell line growth inhibition, 48 h; in the data active = GI50 below about 0.43 µM; inactive = the rest
Your answer must be one of the following: active, inactive

// below: answered compounds
{"columns": ["compound", "classification"],
 "data": [
  ["[Ce+3].[Cl-].[O-]/N=C(\\c1ccccc1)c1ccccn1.[O-]/N=C(\\c1ccccc1)c1ccccn1.[O-]/N=C(\\c1ccccc1)c1ccccn1", "inactive"],
  ["COC(=O)C1=C2C3=C(C(=O)c4ccccc4C3=O)N(Cc3ccccc3)C2(OC(C)=O)C=CC1=O (stereo not drawn)", "inactive"]
]}

-- ask # fetch the recorded call for O=C(/C=C/c1ccccc1O)c1ccccc1 here
-- reply inactive

-- ask Which outcome was entered for the compound O=C1OCC2=C1C(c1cccc([N+](=O)[O-])c1)c1cc3c(cc1N2CCO)CCC3 (stereo not drawn) in this test?
-- reply active

-- ask Dear all, I need the recorded test outcome for COc1c(Nc2ncc(Cl)c(N[C@@H]3[C@H]4C=CC(C4)[C@@H]3C(N)=O)n2)ccc2c1CC[C@@H](N1CCOCC1)CC2 , thank you.
-- reply inactive

-- ask What did the test return for C[CH2][Sn]1([CH2]C)[O]C2C(O)OC(CO)C(O)C2[O]1 (stereo not drawn) ?
-- reply inactive

-- ask Tell me the assay call for O=[N+]([O-])c1ccc(Oc2cccnc2)c([N+](=O)[O-])c1 please.
-- reply inactive

-- ask # fetch the recorded call for CN(C)c1cc2c(cc1Sc1nc3c(N)nccc3n1CCNCC(C)(C)C)OCO2 here
-- reply active
